Data credit: PubChem BioAssay

- testedSystem: Torsin-1A (Homo sapiens) (UniProt O14656)
- Sequence (O14656 whole entry, looked up): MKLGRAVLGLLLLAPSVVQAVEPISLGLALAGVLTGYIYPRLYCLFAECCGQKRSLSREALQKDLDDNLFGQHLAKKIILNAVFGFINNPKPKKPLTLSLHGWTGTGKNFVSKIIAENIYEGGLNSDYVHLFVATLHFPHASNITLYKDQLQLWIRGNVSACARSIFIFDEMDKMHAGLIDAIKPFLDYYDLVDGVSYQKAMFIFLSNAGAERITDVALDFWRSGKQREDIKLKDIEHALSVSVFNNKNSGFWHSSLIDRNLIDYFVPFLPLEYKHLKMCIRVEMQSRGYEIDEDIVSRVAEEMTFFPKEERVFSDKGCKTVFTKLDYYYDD
- experimentDescription: torsin A binders from cell lysate, primary screen, small-molecule microarray, wild-type, 635/667 nm (AID 1149)
- testParameters: COS7 hTOR1A-WT lysate, 635 nm fluorescence, higher = more signal
Rule: YES for composite z-score not less than 0.3, NO for anything less.

O=C(CS)NCCCCCCNC(=O)[C@@H]1C[C@@H]2C(=O)NCC(=O)N2[C@@H]1c1cccc(OCCO)c1 YES

QUERY: Does the reported composite z-score for COC(=O)[C@@]1(Cc2ccc(F)cc2)[C@H]2c3cc(C(=O)N(C)C)n(Cc4ccccc4)c3C[C@H]2CN1C(=O)c1ccccc1 fall at or above the 0.3 mark?
RESULT: NO

QUERY: Does the reported composite z-score for C=C(CCCC)/C(=C/C[C@@H](OC(C)=O)c1ccc(OCCO)cc1)c1cnc2ccccc2c1 fall at or above the 0.3 mark?
RESULT: NO
